assay: dichroic ratio of dye dissolved in liquid crystals (homogeneously aligned 10 micron cell); type: physicochemical; details: liquid crystals E-8; Table 1 method: 1.0% by weight dye, 10 micron gap
Property: Dichroic ratio in liquid crystals E-8; scope: individual compounds
Reply: number alone, nothing else.

As a guide, the following entries are already answered.
# Compound, Dichroic ratio in liquid crystals E-8
records = [
    ("CCCCc1ccc(OC(=O)C2CCC(c3nc4c(Cl)c5c(c(O)c4o3)C(=O)c3c(Cl)ccc(O)c3C5=O)CC2)cc1 (stereo not shown)", 8.0),
    ("CCCCCC1CCC(c2nc3c(N)c4c(c(O)c3o2)C(=O)c2ccccc2C4=O)CC1 (stereo not shown)", 9.5),
    ("CCCCCC1CCC(c2nc3c(N)c4c(c(N)c3o2)C(=O)c2ccccc2C4=O)CC1 (stereo not shown)", 8.1),
    ("CC(C)(C)C1CCC(c2nc3cc4c(c(O)c3s2)C(=O)c2ccccc2C4=O)CC1 (stereo not shown)", 7.8),
]

Q: Give the measured Dichroic ratio in liquid crystals E-8 for CCCCCOC(=O)C1CCC(c2nc3cc4c(c(O)c3o2)C(=O)c2c(O)ccc(O)c2C4=O)CC1 (stereo not shown)
Ans: 9.3

Q: Give the measured Dichroic ratio in liquid crystals E-8 for CCCCOC(=O)C1CCC(c2nc3c(N)c4c(c(O)c3o2)C(=O)c2c(O)cccc2C4=O)CC1 (stereo not shown)
Ans: 8.2

Q: Give the measured Dichroic ratio in liquid crystals E-8 for `CC(C)(C)CC(C)(C)[C@H]1CC[C@H](c2nc3c(N)c4c(c(O)c3o2)C(=O)c2c(O)cccc2C4=O)CC1`
Ans: 11.6

----------
assay: dichroic ratio of dye dissolved in liquid crystals (homogeneously aligned 10 micron cell); format: physicochemical; settings: liquid crystals E-8; Table 1 method: 1.0% by weight dye, 10 micron gap
Metric Name: Dichroic ratio in liquid crystals E-8
Reply: number alone, nothing else.

# Compound, Dichroic ratio in liquid crystals E-8
rows = [
    ("CCCCCCCCC1CCC(c2nc3c(N)c4c(c(O)c3o2)C(=O)c2c(N)ccc(O)c2C4=O)CC1 (stereo not drawn)", 10.5),
    ("CCCCCCCC1CCC(c2nc3c(O)c4c(c(N)c3o2)C(=O)c2ccccc2C4=O)CC1 (stereo not drawn)", 8.0),
]

Q: Give the measured Dichroic ratio in liquid crystals E-8 for CCCCCCCC1CCC(c2nc3c(N)c4c(c(N)c3o2)C(=O)c2ccc(C(=O)OCCCC)cc2C4=O)CC1 (stereo not drawn)
Ans: 9.3
